system: MS2 coat protein; test: apparent KD of MS2 coat protein; designed switch direction (-1 OFF switch, 1 ON switch): -1; higher = weaker reporter binding; details: input ligand: FMN 200 uM
The reader will find reported apparent KD of MS2 coat protein values listed item by item below.
Use nM as the unit, but write only the number.

Illustrative cases are given below, each with its answer.
* GUACGGUAAGGAUAUUGGAGGCCAAAGCACGAGUAGUACUCUAAGAAGGUACAUGAGGAUCACCCAUGUACGAG [Eternabot (L2) Solution 63] (Eterna round: R97, puzzle: Exclusion 4) | 18.8
* AAAUCGGAGGAGGAUAUGGUACAGGAAAUGGUGCCAGAAGGUUUCACAUGAGGAUCACCCAUGUCAAAUAGCGA [EX6 #60] (Eterna round: R97, puzzle: Exclusion 6) | 19.1
* CAUUCCGAGCGAGGAUAUCAGUAAAAGGGAAGCUGAGAAGGCGCAAACAUGAGGAUCACCCAUGUCACACGCGGGUAGUUUUCC [Ditiso] (Eterna round: R96, puzzle: Exclusion NG 1) | 13.9
* CUGCUCCGUGUAGGAUAUCCCGGCAACCAACCGGGAGAAGGACAUGAGGAUCACCCAUGUAUGUUAUUAUCACGUGAAGCGUCC [Design 28] (Eterna round: R96, puzzle: Exclusion NG 1) | 29

Ask | Could you share what apparent KD of MS2 coat protein was measured for GGUCGGGCAAAGGAUGCCCACAUGAGGAUCACCCAUGUACAAGACUUUAAGGUGCGUAAGCGCAUACGGCUCGUUAA [Eternabot (L1) Solution 26] (Eterna round: R97, puzzle: Sensor, turn-off variant 1) , tested on MS2 coat protein?
Reply | 15.9

###

The reader will find reported apparent KD of MS2 coat protein values listed item by item below.
tested on: MS2 coat protein; assay: apparent KD of MS2 coat protein; higher = weaker reporter binding; conditions: Eterna round: R107; input ligand: theophylline 20 uM
Use nM as the unit, but write only the number.

Illustrative cases are given below, each with its answer.
• UUGACAUGAGGAUCACCCAUGUAAACUGAAGGAGCGUCGAAAAUGACAGGUAGGUCGCAGAAUAAUAAUGGUGAUCGUAAAUAUU [#12 Exclusion - Arginine A] = 79.9
• AGGUGCGGCACGGCCGCCACUGCGGUGGUGUGACAUGAGGAUCACCCAUGUUGUCAUGCGGCCCUUAGGACCGGGUGGCGUGCCU [#1 Exclusion - Tryptophan B Attempt #16 (HarryS)] = 64.4
• UACAUAUGCCGAAGGAGCGCGAGAUGCAAAGCAUCAUUCCUCACAUGAGGAUCACCCAUGUCGCAGGUAGGUCGCGGCAUAUGUU [ArgBX] = 45.1
• AAUAAUAGGUGAUCCUAACGAGUGGCAUAACGAGGACCGGUACGGCCGCCACUCGAACAUGAGGAUCACCCAUGUAGUCACUCGA [M'-T'-T-MS2-T'' - Design 5] = 280
• ACAUGAGGAUCACCCAUGUAAUUUACAGAAGGAGCGUGAUGGAUCACAGGUAGGUCGCUGUACUGCGAAAGCACUCUCAUGAAUA [JR_Nu_SSArginiA_Sub025] = 25.3

Ask | Entry under review: AAACAUGAGGAUCACCCAUGUAUACUUAGACGAGGACCGGUACGGCCGCCACUCGAACUUCAAGAUUUGGCGGAAAAUGUAUGUA [JR_ExcTryptoA_Sub022] . Reported apparent KD of MS2 coat protein?
Reply | 13

Ask | Entry under review: CGCAACCAACAUGAGGAUCACCCAUGUGAAGGAGCGCCGAAUAAGGCAGGUAGGUCGCACAUGAAUAAAUCAUGAAGGAAGCGAA [XArg-A 12 NuPack] . Reported apparent KD of MS2 coat protein?
Reply | 43.8

Ask | Entry under review: CCCGACGAGCCUGAGAUUAAGUAAGCGGAUACCAGAGAUAGGUAGCUCCCUUGGCAGCCGUGGACAUGAGGAUCACCCAUGUCAC [theeternabot_exclusion_MS2_Theo_A_22] . Reported apparent KD of MS2 coat protein?
Reply | 13.5

Ask | Entry under review: AUGGCGUUGGUGGAGCGGUGAAAUGGCGAUACCAGCGUGGAAACACGCCCUUGGCAGCGCCAAAACAUGAGGAUCACCCAUGUUA [Usti] . Reported apparent KD of MS2 coat protein?
Reply | 46

Ask | Entry under review: GGGCCCGGGCCCGCGCGGGCCCGGGCCCAACGAGGACCGGUACGGCCGCCACUCGAACGAGUGGGUACAUGAGGAUCACCCAUGU [Baa] . Reported apparent KD of MS2 coat protein?
Reply | 55.9

###

test system: MS2 coat protein; assay: apparent KD of MS2 coat protein; designed switch direction (-1 OFF switch, 1 ON switch): -1; higher = weaker reporter binding; conditions: input ligand: FMN 200 uM
MEASURED_PROPERTY: apparent KD of MS2 coat protein
Answer format: value, then unit.

- GUGCCGCGAGGAUAUACAGACGGGUCCAGUGCGUGUCUCGGACUUGAGGAUCACCCAAGUAGAAGGCGUCUCAG [salish99_ex2_r4_614] (Eterna round: R97, puzzle: Exclusion 2): 0.0167 µM

Then this sequence:
Ask | Entry under review: GUAGAGUCAGGAUAUACGAGAUCGAAAGAUCGGCGGUCCAUACAUGAGGAUCACCCAUGUAGAAGGGACUCUAC [Omei mod 5 to Eli's favorate candidate (ch.parushev)] (Eterna round: R97, puzzle: Exclusion 2) . Reported apparent KD of MS2 coat protein?
Reply | 0.115 µM

###

system: MS2 coat protein; experiment: apparent KD of MS2 coat protein; designed switch direction (-1 OFF switch, 1 ON switch): -1; higher = weaker reporter binding; details: input ligand: FMN 200 uM
Using apparent KD of MS2 coat protein as the sorting value, the categories are bottom (below 50 nM), middle (50 nM to below 200 nM), top (200 nM or more)

Ask | Category lookup for the sequence AGUCAGGCGGUAGGAUAUCCAAAUCGAGUGACCCUCUCAUAACAUGAGGAUCACCCAUGUCGGUGGGAGAAGGGCCGUAAGGCG [Mat - Exclusion NG 2 - Mod of JL - D63] (Eterna round: R96, puzzle: Exclusion NG 2)
Reply | bottom

Ask | Category lookup for the sequence AAGAAACAUGAGGAUCACCCAUGUGAGGAUAUGGCCCGCCCGGCGUGAGCUGGUUUUGUCAGAAGGCGCAAAGG [salish99_ex1_r4_018] (Eterna round: R97, puzzle: Exclusion 1)
Reply | middle

Ask | Category lookup for the sequence GGCCCGGGAGGAUAUACAUGAGGAUCACCCAUGUAGCCCGGCCCGAUCGGGCCGGGCUGUAGAAGGCCCGGGCC [-49.2, -46.3 kcal, 19% A] (Eterna round: R97, puzzle: Exclusion 3)
Reply | bottom

Ask | Category lookup for the sequence AAUUAGUAUGUGAGGAUAUUGAUGUAAUGACGGUUUAAGAAGGCACAUGAGGAUCACCCAUGUAAAUGAUCACG [JR_BMEx4_Sub008] (Eterna round: R97, puzzle: Brourd's mod of Exclusion 4)
Reply | middle

Ask | Category lookup for the sequence CCACGACAUGAGGAUCACCCAUGUGAGGAUAUGGCCUGAAAAGCGUGAGCAGUUUCUAUCAGAAGGCGCGUGGG [salish99_ex1_r4_063] (Eterna round: R97, puzzle: Exclusion 1)
Reply | middle

Ask | Category lookup for the sequence GUGUACAGAGGAUAUAUAUGAGCUAGGAAACUAGCAAACUCACAUGAGGAUCACCCAUGUAGAAGGCUGUACAC [Ex2: 722] (Eterna round: R96, puzzle: Exclusion 2)
Reply | top

Ask | Category lookup for the sequence GCUGAAGGGUCGAUUACCAACAUGAGGAUCACCCAUGUUCGGAAUAAUUACAGGUUCGCUCGUCUCGAUGAAAGUCC [Eternabot (L1) Solution 19] (Eterna round: R97, puzzle: Sensor, turn-off variant 1)
Reply | bottom

Ask | Category lookup for the sequence AACAUUCCAGAAAGGAAUGACAUGAGGAUCACCCAUGUAGGGAUCUAUGCUAAGUUGCUCGUCGCCGCUCCACAAAG [Eternabot (Original) Solution 5] (Eterna round: R97, puzzle: Sensor, turn-off variant 1)
Reply | top

Ask | Category lookup for the sequence UUCAUGUGAGGAUAUGUGCAAGACCUAGAGAUUGGGUUUUCACAGAAGGCACAUGAGGAUCACCCAUGUGUUAC [Eternabot (L2) Solution 23] (Eterna round: R97, puzzle: Exclusion 4)
Reply | top

###

tested on: MS2 coat protein; experiment: apparent KD of MS2 coat protein; designed switch direction (-1 OFF switch, 1 ON switch): -1; higher = weaker reporter binding; settings: input ligand: none
Label true when apparent KD of MS2 coat protein is at or above 20 nM; anything below gets false.

Use these answered entries as a reference point.
• UUGUUACAUGAGGAUCACCCAUGUGAGGAUAUGGUUAAGUAAUGUAAUGUAAAGUAAUCCAGAAGGCACAUGUU [1st #25] (Eterna round: R97, puzzle: Exclusion 1) = true
• AUACGUGAGAAGGAUAUCACACGCCAGAGGCGUUGAGAAGGUUUCACAUGAGGAUCACCCAUGUGCUCUUCCAG [Orlaa] (Eterna round: R97, puzzle: Exclusion 6) = true
• AGCUGUGGCCGAGGAUAUGACAUGAGGAUCACCCAUGUACCAGAUUAGGCCUGGUAACAGGCUCAUCAGAAGGCGGUCUCAGCA [Eli eng2 - 016] (Eterna round: R96, puzzle: Exclusion NG 2) = false

Ask | Is reported apparent KD of MS2 coat protein greater than or equal to 20 nM here: ACAUGAGGAUCACCCAUGUGAAAACAAUGGCUGACUUUGAGAUAGGAUAUAUGUGCAUAUCAAACAUAGAAGGGUCAUUACUGG [Deportation 90 - Jieux - Exclusion NG 3] (Eterna round: R96, puzzle: Exclusion NG 3)
Reply | true
